Listing of entries alongside the reported pIC50.
Target: USP28 (His-tagged USP28-FL-mammalian) (Homo sapiens, UniProt Q96RU2)
Construct: Expression of USP28 (1-1077)-TEV-6*His (pTT5 vector); made in house; host or cells: Expi293f cells (pTT5 vector)
Sequence (Q96RU2 whole entry): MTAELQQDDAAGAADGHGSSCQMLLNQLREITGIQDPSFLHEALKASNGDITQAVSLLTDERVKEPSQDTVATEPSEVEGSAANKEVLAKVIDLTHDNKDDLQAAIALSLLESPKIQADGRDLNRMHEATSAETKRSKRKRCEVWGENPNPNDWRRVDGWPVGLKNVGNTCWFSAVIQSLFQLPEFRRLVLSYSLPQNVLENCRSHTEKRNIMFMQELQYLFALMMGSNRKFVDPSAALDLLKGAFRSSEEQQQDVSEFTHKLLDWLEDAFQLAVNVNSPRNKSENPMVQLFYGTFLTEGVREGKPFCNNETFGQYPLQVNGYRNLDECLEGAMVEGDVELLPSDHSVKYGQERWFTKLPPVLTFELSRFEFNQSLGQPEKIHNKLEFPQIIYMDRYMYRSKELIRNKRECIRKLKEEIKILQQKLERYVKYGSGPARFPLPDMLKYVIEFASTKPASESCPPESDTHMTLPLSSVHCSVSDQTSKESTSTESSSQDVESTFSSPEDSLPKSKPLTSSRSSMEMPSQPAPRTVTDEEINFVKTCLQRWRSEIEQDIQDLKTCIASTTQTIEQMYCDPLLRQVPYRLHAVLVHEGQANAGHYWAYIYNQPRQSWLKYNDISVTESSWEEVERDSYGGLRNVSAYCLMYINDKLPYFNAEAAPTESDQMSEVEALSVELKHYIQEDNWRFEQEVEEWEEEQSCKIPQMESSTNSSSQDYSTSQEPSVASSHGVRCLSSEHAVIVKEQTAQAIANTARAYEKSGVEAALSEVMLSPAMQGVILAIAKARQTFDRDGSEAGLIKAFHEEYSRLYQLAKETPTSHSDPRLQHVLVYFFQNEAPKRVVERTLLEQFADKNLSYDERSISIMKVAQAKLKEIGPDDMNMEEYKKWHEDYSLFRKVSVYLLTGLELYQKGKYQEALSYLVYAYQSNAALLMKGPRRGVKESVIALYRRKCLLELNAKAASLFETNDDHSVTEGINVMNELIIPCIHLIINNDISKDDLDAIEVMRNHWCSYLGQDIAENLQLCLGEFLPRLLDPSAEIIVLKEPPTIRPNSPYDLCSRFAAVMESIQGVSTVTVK
Assay summary: Ubiquitin-Rhodamine 110 Assay for USP28 Activity, Example A-1(a)
Format: biochemical
Condition details: Ubiquitin-Rhodamine 110 assay, Example A-1(a); read-out: USP28 A-1(a) IC50 range
pIC50: −log10 of the molar value.

{"Compound": "O=C(N[C@H]1COc2cc(N3CCNCC3)ccc2C1)c1cnc2c(ccn2C(F)F)c1 [Example 38]", "pIC50": "5.70 to 6.70"}
{"Compound": "COC[C@H]1CN(c2ccc3c(n2)CC[C@H](NC(=O)c2sc4nc(C)ccc4c2N)C3)C[C@H]1N (single isomer, unassigned) [Example 24-2]", "pIC50": "6.70 to 7.30"}
{"Compound": "Cc1ccc2c(N)c(C(=O)N[C@@H]3CCc4nc(N5CCNCC5)c(F)cc4C3)sc2n1 (single isomer, unassigned) [Example 30-2]", "pIC50": "5.70 to 6.70"}
{"Compound": "C[C@H]1CCc2cc(C(=O)N[C@H]3COc4cc(N5CC6CCC(C5)N6)ccc4C3)cnc2N1 [Example 73]", "pIC50": "< 5.70"}
{"Compound": "Cc1ccc2c(N)c(C(=O)N[C@H]3COc4c(F)c(N5CCNCC5)c(F)c(F)c4C3)sc2n1 [Example 35]", "pIC50": "7.30 to 9.00"}
{"Compound": "Cc1ccc2c(N)c(C(=O)N[C@H]3CCc4cc(N5CC6CCC(C5)N6)ccc4C3)oc2n1 [Example 171]", "pIC50": "< 5.70"}
{"Compound": "Cc1ccc2c(N)c(C(=O)N[C@@H]3COc4cc(N5CCNCC5)ccc4[C@@H]3C)sc2n1 (single isomer, unassigned) [Example 11-18]", "pIC50": "< 5.70"}
{"Compound": "Cc1nc2sc(C(=O)N[C@H]3COc4cc(N5CCNCC5)ncc4C3)c(N)c2cc1F [Example 72]", "pIC50": "7.30 to 9.00"}
{"Compound": "CO[C@@H]1CN(c2ccc3c(c2)OC[C@H](NC(=O)c2sc4nc(C)sc4c2N)C3)C[C@@H]1N [Example 149]", "pIC50": "7.30 to 9.00"}
{"Compound": "COC[C@@H]1[C@@H](N)CCN1c1ccc2c(n1)CC[C@H](NC(=O)c1sc3nc(C)ccc3c1N)C2 [Example 420]", "pIC50": "7.30 to 9.00"}
{"Compound": "Cc1ccc2c(N)c(C(=O)N[C@H]3COc4cc(N5CC6COCC(C5)C6(F)F)ccc4C3)sc2n1 [Example 5-4]", "pIC50": "7.30 to 9.00"}
{"Compound": "CCO[C@H]1CN(c2ccc3c(c2)OC[C@H](NC(=O)c2sc4nc(C)cc(C)c4c2N)C3)C[C@H]1N [Example 324]", "pIC50": "6.70 to 7.30"}
{"Compound": "CO[C@H]1CN(c2ccc3c(c2)OC[C@H](NC(=O)c2sc4nc(C)sc4c2N)C3)C[C@H]1N [Example 150]", "pIC50": "6.70 to 7.30"}
{"Compound": "Cc1cnc2c(N)c(C(=O)N[C@H]3COc4cc(N5CC6CCC(C5)N6)c(F)cc4C3)sc2n1 (single isomer, unassigned) [Example 40]", "pIC50": "7.30 to 9.00"}

----------
Target: USP28 (His-tagged USP28-FL-mammalian) (Homo sapiens, UniProt Q96RU2)
Construct: Expression of USP28 (1-1077)-TEV-6*His (pTT5 vector); made in house; host or cells: Expi293f cells (pTT5 vector)
Assay summary: Ubiquitin-Rhodamine 110 Assay for USP28 Activity, Example A-1(a)
Type: biochemical
Condition details: Ubiquitin-Rhodamine 110 assay, Example A-1(a); read-out: USP28 A-1(a) IC50 range
pIC50: −log10 of the molar value.
Each item that follows carries a reported pIC50.

{"Molecule": "Cc1ccc2c(N)c(C(=O)N[C@H]3CCc4nc(N5C[C@H]6NCCC(F)(F)[C@H]6C5)ccc4C3)sc2n1 [Example 329]", "pIC50": "6.70 to 7.30"}
{"Molecule": "Cc1ccc2c(N)c(C(=O)N[C@H]3COc4c(C#N)c(N5CC6CCC(C5)N6)cc(F)c4C3)sc2n1 [Example 95]", "pIC50": "7.30 to 9.00"}
{"Molecule": "Cc1ccc2c(N)c(C(=O)N[C@H]3CCc4cc(N5CCN[C@H](CO)C5)ccc4C3)sc2n1 (single isomer, unassigned) [Example 7-8]", "pIC50": "5.70 to 6.70"}
{"Molecule": "Cc1cnc2c(N)c(C(=O)N[C@H]3COc4cc(N5CC6CNCC(C5)O6)cc(F)c4C3)sc2n1 [Example 10-12]", "pIC50": "7.30 to 9.00"}

----------
Measured pIC50 of individual entries
Target: USP25 (USP25-His6, Boston Biochem E-546) (Homo sapiens, UniProt Q9UHP3)
Construct: His6; purchased Boston Biochem E-546
Sequence (Q9UHP3 1-1055): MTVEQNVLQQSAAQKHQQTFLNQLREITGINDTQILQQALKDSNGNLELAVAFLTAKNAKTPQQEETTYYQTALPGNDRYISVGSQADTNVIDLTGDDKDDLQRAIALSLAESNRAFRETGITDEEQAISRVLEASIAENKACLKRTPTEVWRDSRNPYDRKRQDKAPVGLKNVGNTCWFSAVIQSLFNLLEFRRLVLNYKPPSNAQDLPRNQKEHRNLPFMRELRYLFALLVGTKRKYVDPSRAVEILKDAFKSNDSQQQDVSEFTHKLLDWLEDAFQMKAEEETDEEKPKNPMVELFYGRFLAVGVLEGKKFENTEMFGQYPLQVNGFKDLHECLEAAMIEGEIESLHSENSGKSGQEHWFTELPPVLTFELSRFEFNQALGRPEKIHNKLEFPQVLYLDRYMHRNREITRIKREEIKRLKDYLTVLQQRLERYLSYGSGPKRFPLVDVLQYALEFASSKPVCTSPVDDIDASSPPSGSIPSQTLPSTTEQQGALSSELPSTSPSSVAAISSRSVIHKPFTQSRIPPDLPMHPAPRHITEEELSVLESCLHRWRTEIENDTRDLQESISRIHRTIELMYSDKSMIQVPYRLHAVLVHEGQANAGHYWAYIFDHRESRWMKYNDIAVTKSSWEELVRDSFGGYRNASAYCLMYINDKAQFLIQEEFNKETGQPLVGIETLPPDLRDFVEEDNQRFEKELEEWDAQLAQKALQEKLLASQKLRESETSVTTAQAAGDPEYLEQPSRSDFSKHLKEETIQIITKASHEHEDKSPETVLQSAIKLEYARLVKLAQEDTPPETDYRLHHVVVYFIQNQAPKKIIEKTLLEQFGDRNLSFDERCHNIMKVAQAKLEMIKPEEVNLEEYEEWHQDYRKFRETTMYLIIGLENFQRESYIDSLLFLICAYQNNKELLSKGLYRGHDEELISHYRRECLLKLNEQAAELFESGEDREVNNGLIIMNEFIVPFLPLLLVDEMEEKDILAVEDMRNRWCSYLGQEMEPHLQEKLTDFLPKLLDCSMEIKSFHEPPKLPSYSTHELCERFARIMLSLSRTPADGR
Assay summary: Ubiquitin-Rhodamine 110 Assay for USP25 Activity, Example A-2
Format: biochemical
Condition details: Ubiquitin-Rhodamine 110 assay, Example A-2; read-out: USP25 A-2 IC50 range
pIC50: −log10 of the molar value.
Readout kind: pIC50

{"Compound": "Cc1ccc2c(N)c(C(=O)N[C@H]3CCc4nc(N5CC[C@@H]6CNC[C@@H]65)ccc4C3)sc2n1", "Observed": "6.70 to 7.30"}
{"Compound": "Cc1ccc2c(N)c(C(=O)N[C@H]3CCc4cc(N5CCN[C@@H](CO)C5)ccc4C3)sc2n1 (single isomer, unassigned)", "Observed": "< 5.70"}
{"Compound": "CCOC[C@@H]1CN(c2ccc3c(c2)OC[C@H](NC(=O)c2sc4nc(C)ccc4c2N)C3)C[C@@H]1N", "Observed": "5.70 to 6.70"}
{"Compound": "Cc1cnc2c(N)c(C(=O)N[C@@H]3COc4cc(N5CC6CCC(C5)N6)c(F)cc4C3)sc2n1 (single isomer, unassigned)", "Observed": "< 5.70"}
{"Compound": "Cc1ccc2c(N)c(C(=O)N[C@H]3CCc4nc(N5CC6CCC(C5)N6)ccc4C3)sc2n1", "Observed": "5.70 to 6.70"}
{"Compound": "Cc1ccc2c(N)c(C(=O)N[C@H]3COc4cc(N5CCC[C@](C)(O)C5)ccc4C3)sc2n1", "Observed": "5.70 to 6.70"}
{"Compound": "Cc1ccc2c(N)c(C(=O)N[C@H]3Cc4ccc(N5CCNCC5)nc4[C@@H](C)C3)sc2n1", "Observed": "< 5.70"}
